- Method notes: Cytotoxicity against mouse FL83B cells assessed as cell viability by MTT assay
- Format: cell-based
pIC50: −log10 of the molar value.
Property: pIC50

>>> df
                                    compound  op  data_value
 0  C=CC1CN2CCC1C[C@H]2[C@@H](NC(=O)Nc1ccccc1C(F)(F)F)c1ccnc2ccc(OC)cc12 (some centres not stated)   <        5.00
 1  CCN(CC)CCCC(C)Nc1ccnc2cc(Cl)ccc12 (configuration not stated)   <        5.00
 2  C=CC1CN2CCC1CC2[C@@H](NC(=O)Nc1ccc(C(F)(F)F)cc1)c1ccnc2ccc(OC)cc12 (some centres not stated)   =        6.10
 3  C=CC1CN2CCC1CC2[C@H](NC(=O)Nc1cc(C(F)(F)F)cc(C(F)(F)F)c1)c1ccnc2ccc(OC)cc12 (some centres not stated)   =        6.04
 4  C=CC1CN2CCC1C[C@H]2[C@@H](NC(=O)Nc1cccc(C(F)(F)F)c1)c1ccnc2ccc(OC)cc12 (some centres not stated)   <        5.00
 5  C=CC1CN2CCC1CC2[C@@H](NC(=S)Nc1cc(C(F)(F)F)cc(C(F)(F)F)c1)c1ccnc2ccc(OC)cc12 (some centres not stated)   =        6.11
 6  C=CC1CN2CCC1CC2[C@@H](NC(=O)Nc1cc(C(F)(F)F)cc(C(F)(F)F)c1)c1ccnc2ccc(OC)cc12 (some centres not stated)   =        6.14
 7  C=CC1CN2CCC1C[C@H]2[C@@H](NC(=O)Nc1cc(OC)cc(OC)c1)c1ccnc2ccc(OC)cc12 (some centres not stated)   =        5.07
 8  C=CC1CN2CCC1CC2[C@@H](NC(=O)Nc1ccc(F)cc1)c1ccnc2ccc(OC)cc12 (some centres not stated)   =        5.41
 9  C=CC1CN2CCC1CC2[C@@H](NC(=O)Nc1ccccc1)c1ccnc2ccc(OC)cc12 (some centres not stated)   <        5.00
10  C=CC1CN2CCC1C[C@H]2[C@@H](NC(=O)Nc1ccc(OC)cc1)c1ccnc2ccc(OC)cc12 (some centres not stated)   <        5.00
11  C=CC1CN2CCC1C[C@H]2[C@@H](NC(=O)Nc1cc(C)cc(C)c1)c1ccnc2ccc(OC)cc12 (some centres not stated)   <        5.00
